B1: library; a variant is named by its letters at N, in order (parent)
chain: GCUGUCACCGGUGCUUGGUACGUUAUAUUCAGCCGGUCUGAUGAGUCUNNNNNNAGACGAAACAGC

Variants of: B1
Test: normalized RNA/DNA level with ligand (relative to sTRSVctl = 100) (log10 (% of sTRSVctl)); HEK293T overexpressing SLC46A1; ligand concentration (+) RNA-Seq: 6 mM; higher = less ribozyme self-cleavage, higher mRNA level
Settings: with (6R,S)-folinic acid; ligand present: yes
The following variants are shown together with reported normalized RNA/DNA level with ligand (log10) values.
Experimental endpoint: normalized RNA/DNA level with ligand (log10)

1. UGUCAG; 2
2. GUGUCG; 2.06
3. UUAGGG; 2
4. UCACCA; 2.01
5. UGUUUG; 2.01
6. AGUGCG; 2.01
7. CUUGAA; 1.99
8. UCGGUG; 2
9. GCUGUU; 2.04
10. CUGAAA; 2
11. AAGAAC; 2
12. UCCUAA; 2.02
13. CCCGCG; 2.01
14. ACCCGU; 2.02
15. GAUGUA; 2
16. AACUAC; 2.01
17. GCGACC; 2.07
18. CAAGGA; 1.99
19. CCUUCG; 2.04
20. UACUAA; 2.02
21. GAUGCC; 2.02
22. CUACGG; 2.09
23. ACCCUG; 2.03
24. GAAAAU; 2.02
25. UUCCUA; 2.03
26. CGAUAC; 2.01
27. GAAACG; 2
28. CGGUAC; 1.99
29. ACAUCG; 2.07
30. GAUUGC; 2
31. AGCGAC; 2.03
32. GCCUUG; 2.03
33. CGGGCA; 2.04
34. CUCGUA; 1.98
35. CAUGGU; 1.95
